- Tested on: NF-κB
- Assay info: NF-κB luciferase reporter assay in A549/NF-κBLuc cells
- Format: cell-based, human
- Experimental parameters: Homo sapiens; A549/NF-κBLuc, TNF-α (500 ng/ml) for 4 hours, luciferase activity; read-out: IC50 (μM) TNF stimulation
Endpoint name: log10 IC50 (log10 of the value in µM)
Plainly stated, the numbers are log10 of IC50 given in µM.

Example compounds with recorded log10 IC50:
[[record]]
compound = "CC(C)c1csc2ncnc(NC3Cc4ccccc4C3)c12"
value_observed = -0.89

[[record]]
compound = "Cc1csc2ncnc(NC3Cc4ccccc4C3)c12"
value_observed = 0.04


Prompt line: Answer with log10 IC50 of COC1=C(OC)C(=O)C(Cc2ccc(CCC(=O)NC(C)C)cc2)=C(C)C1=O measured for NF-κB.
Response line: 0.60

Prompt line: Provide NF-κB log10 IC50 reading for Cc1csc2ncnc(NC3Cc4ccc(C(=O)NCc5ccccc5)cc4C3)c12 (stereo not drawn) .
Response line: -0.92

Prompt line: GET log10 IC50 where system = NF-κB and item = COC1=C(OC)C(=O)C(Cc2ccc(CCC(=O)N3CCSCC3)cc2)=C(C)C1=O
Response line: 1.00

Prompt line: Consider the compound COC1=C(OC)C(=O)C(Cc2ccc(CCC(=O)N3CCCCC3)cc2)=C(C)C1=O tested on NF-κB; state its log10 IC50.
Response line: 1.00
